Protocol: NCI Yeast Anticancer Drug Screen. Data for the sgs1 mgt1 strain (AID 161);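 note: 0% = growth of cultures given vehicle only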
Condition details: S. cerevisiae sgs1 mgt1 strain, at 50.0 µM, hits give high values
The panel holds about 79,000 compounds, 15% with a hit somewhere; the sample as a whole holds those more often.
Measured metric: growth inhibition (%)
Please give a number only; it is taken to be in %.

Cc1ccc(C)c(N(c2ccccc2[N+](=O)[O-])S(C)(=O)=O)c1 99.6
CN1CCCN(C)C1c1cc([N+](=O)[O-])ccc1O 97.7
O=S(=O)(Nc1ccc(-c2ccc(Cl)cc2)cc1)c1ccccc1 97.8

// field: growth inhibition; key: OCCSCc1cc(Cl)cc(Cl)c1O ; value = 78.7

response.value for C=CCN1/C(=C/C=C\c2sc3ccccc3[n+]2CC=C)Sc2ccccc21 (field: growth inhibition) = 93.7

// growth inhibition value for O=C(NNc1ccccc1)c1ccc([N+](=O)[O-])cc1 : 99

---

Protocol: NCI Yeast Anticancer Drug Screen. Data for the bub3 strain (AID 167)
Condition details: S. cerevisiae bub3 mutant strain, at 50.0 µM, hits give high values
This is part of a sample that, as a whole, favours compounds with a hit. Of some 79,000 tested, about 15% had one in any assay.
Measured growth inhibition, listed per entry.
Give the value in % but do not write % after it.

Compound	growth inhibition (%)
CN1CCC(OC(=O)c2ccc3ncccc3c2)CC1	33.9

Moving on to another compound below.
Entry Fc1cccc(NC(=S)SCc2ccco2)c1 — recorded growth inhibition = 82

---

Protocol: NCI Yeast Anticancer Drug Screen. Data for the sgs1 mgt1 strain (AID 161);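 note: 0% = growth of cultures given vehicle only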
Condition details: S. cerevisiae sgs1 mgt1 strain, at 50.0 µM, hits give high values
Compounds without any hit were thinned out: in the full panel of roughly 79,000, 15% have a hit.
growth inhibition for assorted molecules
Report the value in % with no unit label.

These recorded examples may help you get a feel for the data.
Molecule	Measured metric	Value unit	Experimental value
COc1nc(N)c(N=O)c(OCc2ccccc2)n1	growth inhibition	%	91.4
Cc1ccc(Nc2nc(C)c(C(/C=C/c3ccc4c(c3)OCO4)=N/Nc3ccc([N+](=O)[O-])cc3[N+](=O)[O-])s2)c([N+](=O)[O-])c1	growth inhibition	%	89.5
CC(C)CCOC(=O)c1ccc(O)cc1.[Zn+2]	growth inhibition	%	76.8
Cc1cc2c(cc1O)CC[C@@H]1[C@@H]2CC[C@]2(C)[C@@H](O)CC[C@@H]12	growth inhibition	%	68
COc1cccc2c1C(=O)c1c(O)c3c(c(O)c1C2=O)C[C@@](O)(/C(C)=N/NS(C)(=O)=O)C[C@@H]3OC1CC(N)C(O)C(C)O1 (stereo not given in full)	growth inhibition	%	94.2
Brc1ccc(N=NN2CCCC2)cc1	growth inhibition	%	86.4
CN(C)c1ccccc1CCCCCCc1ccccc1N(C)C	growth inhibition	%	87.8
C1=CC2OC2CCCCCCCC1 (mixture of isomers)	growth inhibition	%	84.8
CC1=C(Br)S(=O)(=O)N(c2ccccc2)C(CBr)=C1Br	growth inhibition	%	16.9

--- query ---
Measured growth inhibition, [N-]=[N+]=CC(=O)CCC(NC(=O)OCc1ccccc1)C(=O)OCc1ccccc1 (stereo not given) : 90.5

---

Protocol: NCI Yeast Anticancer Drug Screen. Data for the rad50 strain (AID 155);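 note: 0% = growth of vehicle-only cultures of the same strain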
Condition details: S. cerevisiae rad50 strain growth inhibition; at 50.0 µM (retest, dose inferred, filed as 5.0); hits give high values
This is part of a sample that, as a whole, favours compounds with a hit. Of some 79,000 tested, about 15% had one in any assay.
Measured metric: growth inhibition (%)
Please state the figure in %; there is no need to write the unit.

Molecule	growth inhibition / %
N#CC(NNC(=O)c1ccccc1O)c1c(O)ccc2ccccc12 (stereo unspecified)	59

For this molecule ( CCCCC1(C(O)CC)Sc2ccccc2N1C (stereo unspecified) ), measured growth inhibition is 24

---

Protocol: NCI Yeast Anticancer Drug Screen. Data for the mec2-1 strain (AID 157)
Condition details: S. cerevisiae mec2-1 strain, at 50.0 µM (retest, dose inferred, filed as 5.0), hits give high values
Method: Growth inhibition of yeast strains with defined genetic alterations is measured as a screen for potential anti-cancer activity. Selected strains with alterations in DNA damage repair or cell cycle control were exposed to compounds and growth inhibition was measured relative to vehicle treated controls. The strain used in this assay is mec2-1
Compounds without any hit were thinned out: in the full panel of roughly 79,000, 15% have a hit. Calls of active or inactive are those of the source. Rule as the data show it: active = growth inhibition above about 70%; inactive = the rest.
compounds and their reported growth inhibition

Nc1ccc(C(=O)N/N=C\c2cccc3ccccc23)cc1 has a reported growth inhibition of 13% (inactive)

Record O=[N+]([O-])c1ccc(-c2ccc(-c3csc(Nc4ccccc4)n3)o2)cc1 . Reported growth inhibition: 98% (active)

# compound C=C(CN1CCCC1)C(=O)c1ccc(OC)cc1 ; its growth inhibition = 65% (inactive)

For this compound ( CC1(C(=O)O)CCC2(C)CCC3(C)C(=CC(=O)C4C5(C)CCC(O)C(C)(C)C5CCC43C)C2C1 (configuration not stated) ), measured growth inhibition is 78% (active)

get_value(item= O=C(/C=C/c1ccccc1)CCN1CCOCC1 , readout=growth inhibition) returns 99% (active)

---

Protocol: NCI Yeast Anticancer Drug Screen. Data for the sgs1 mgt1 strain (AID 161);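 note: 0% = growth of cultures given vehicle only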
Condition details: S. cerevisiae sgs1 mgt1 strain, at 5.0 µM (retest, dose inferred, filed as 0.5), hits give high values
This is part of a sample that, as a whole, favours compounds with a hit. Of some 79,000 tested, about 15% had one in any assay.
Measured metric: growth inhibition (%)
Enter your answer as a number in %; do not include the unit.

Molecule	Experimental value
CC12CCC(O)CC1=CCC1C2CCC2(C)/C(=C\C#N)CCC12 (centres undefined)	11

response.value for NS(=O)(=O)c1ccc(NC(=S)/N=C/c2c(O)c3ccccc3[nH]c2=O)cc1 (field: growth inhibition) = -29

Value of measured growth inhibition for the entry C=C1C(=O)O[C@@H]2C[C@@]3(C)CCC[C@H](C)C3=C[C@H]12 (tested in a mixture with another compound) : 4

---

Protocol: NCI Yeast Anticancer Drug Screen. Data for the cln2 rad14 strain (AID 165);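 note: 0% = growth equal to vehicle treated cultures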
Condition details: S. cerevisiae cln2 rad14 strain, at 50.0 µM, hits give high values
This is part of a sample that, as a whole, favours compounds with a hit. Of some 79,000 tested, about 15% had one in any assay.
Parameter threshold = 30%. Response is 1.0 when growth inhibition meets or exceeds it, else 0.0.

Some entries whose results are on file:
Compound	Answer label
O=C1OC(c2cccc(Cl)c2)Sc2ccccc21 (configuration not stated)	0.0
CCOC(=O)N1CCN(CCCCCCOc2c(Cl)cc(Cl)cc2Cl)CC1	1.0
COc1cc2cnc(-c3ccccc3)cc2cc1OC	0.0
Cc1cc(C2c3ccccc3-c3ccccc32)cc(C)c1O	1.0
CC1([N+](=O)[O-])C(=O)C2(N3CCOCC3)CCCC2C1c1ccccc1 (configuration not stated)	0.0

## Task Textbook exercise: given the entry CN1C(=O)C(Cl)(C(Cl)(Cl)S(=O)(=O)O)C(=O)c2ccccc21 (configuration not stated) , state whether its growth inhibition is greater than or equal to 30%.
## Result 1.0

## Task Does Cc1cccc(C)c1O have a reported growth inhibition of at least 30%?
## Result 1.0

---

Protocol: NCI Yeast Anticancer Drug Screen. Data for the mlh1 rad18 strain (AID 175)
Condition details: S. cerevisiae mlh1 rad18 strain growth inhibition; at 50.0 µM; hits give high values
This is part of a sample that, as a whole, favours compounds with a hit. Of some 79,000 tested, about 15% had one in any assay.
Measured metric: growth inhibition (%)
Numbers only here, please. The scale is %.

// known answers, use as guide
Compound	Value unit	growth inhibition
Nc1ncnc2c1ncn2C1OCC(OCc2ccccc2)C(OCc2ccccc2)C1OCc1ccccc1 (configuration not stated)	%	98.1
O=[N+]([O-])c1cc(Br)cc2c1nc(NCCCO)c1ccccc12	%	98.8
CC[N](CC)[Ge]([CH2]C)[CH2]C.CC[N](CC)[Ge]([CH2]C)[CH2]C	%	77.7
O=C1CSC(=S)N1Cc1ccncc1	%	39.3

Note to self: growth inhibition recorded for O=C(O)c1c2c(cc3c1CC1(Cc4ccccc4C1=O)C3)CCC2 (configuration not stated) was 77.9

Form: compound = O=C1CC(c2ccccc2)C(c2ccccc2)CO1 (configuration not stated) ; growth inhibition = 93.7

CCSC1(SCC)C(=O)OC2=C(CCCC2)C1N1CCOCC1 (configuration not stated) has a reported growth inhibition of 15.6

The compound listed as CCCCN(CCO)CCNc1ccc(C)c2sc3ccccc3c(=O)c12 shows growth inhibition equal to 95.5

Briefly, growth inhibition measured for c1ccc(C2=NCCC(c3ccccc3)S2)cc1 (configuration not stated) : 21.9

Field growth inhibition (entry CC(CO)CCC(=O)C(C)C1C(=O)CC2CC3CC(O)CCC3(C)CC21C (configuration not stated) ) reads 90.3

Please fill in: growth inhibition reported for CCOC(=O)/C(=C\c1ccc(C)cc1)C(C)=O = 90.7

Kindly note the recorded growth inhibition for CCC(C)(O)C#Cc1ccc(C)nc1 (configuration not stated) , which is 0.4
